molecular target: GCN2 (Homo sapiens); construct: purchased Carma Biosciences (so in the source); test: TR-FRET biochemical assay for inhibition of GCN2 activity; conditions: 2 nM GCN2, 100 nM GFP-eIF2α, 150 μM ATP, 1.5 hours at 25° C.
Measured property: IC50

Incoming: Provide the documented IC50 with GCN2 (Homo sapiens) as the system for COc1ncc(Cl)cc1S(=O)(=O)Nc1ccc(F)c(OCc2cnc3[nH]ncc3c2)c1F [Compound 4]
Outgoing: < 0.05 µM

Incoming: And COc1ncc(Cl)cc1S(=O)(=O)Nc1ccc(F)c(CCc2cnc3c(N)nccn23)c1F [Compound 32] ?
Outgoing: < 0.05 µM

Incoming: And COc1ncc(F)cc1S(=O)(=O)Nc1ccc(F)c(COc2cnc3[nH]nc(C)c3c2-c2ccncc2)c1F [Compound 87] ?
Outgoing: 0.05 to 0.5 µM

Incoming: And COc1ncc(Cl)cc1S(=O)(=O)Nc1ccc(F)c(COc2cnc3[nH]ncc3c2C)c1F [Compound 22] ?
Outgoing: < 0.05 µM

Incoming: And COc1ncc(Cl)cc1S(=O)(=O)Nc1ccc(F)c(COc2cnc3[nH]nc(C)c3c2)c1F [Compound 14] ?
Outgoing: < 0.05 µM

Incoming: And COc1ncc(F)cc1S(=O)(=O)Nc1ccc(F)c(NCc2cnc3[nH]nc(C)c3c2)c1F [Compound 57] ?
Outgoing: 0.05 to 0.5 µM

Incoming: And COc1ncc(Cl)cc1S(=O)(=O)Nc1ccc(F)c(NCc2cnc3[nH]nc(C)c3c2)c1F [Compound 58] ?
Outgoing: < 0.05 µM

Incoming: And COc1ncc(F)cc1S(=O)(=O)Nc1ccc(F)c(CCc2cnc3cnn(C(C)C)c3c2)c1F [Compound 36] ?
Outgoing: 0.05 to 0.5 µM

Incoming: And COc1ncc(Cl)cc1S(=O)(=O)Nc1ccc(F)c(OCc2cnc3[nH]nc(C)c3c2)c1F [Compound 46] ?
Outgoing: < 0.05 µM

Incoming: And COc1ncc(Cl)cc1S(=O)(=O)Nc1ccc(F)c(C(C)Oc2cnc3[nH]ncc3c2)c1F (stereo not shown) [Compound 25] ?
Outgoing: 0.5 to 1 µM

Incoming: And COc1ncc(F)cc1S(=O)(=O)Nc1ccc(F)c(COc2cnc3[nH]nc(C)c3c2-c2cccnc2)c1F [Compound 91] ?
Outgoing: 0.05 to 0.5 µM

Incoming: And COc1ncc(F)cc1S(=O)(=O)Nc1ccc(F)c(COc2cnc3cnn(C)c3c2)c1F [Compound 43] ?
Outgoing: < 0.05 µM

Incoming: And COc1ncc(Cl)cc1S(=O)(=O)Nc1ccc(F)c(CCc2cnc3cnn(C)c3c2)c1F [Compound 18] ?
Outgoing: < 0.05 µM

Incoming: And COc1ncc(F)cc1S(=O)(=O)Nc1ccc(F)c(COc2cnc3[nH]ncc3c2)c1F [Compound 21] ?
Outgoing: < 0.05 µM

Incoming: And COc1ncc(F)cc1S(=O)(=O)Nc1ccc(Cl)c(COc2cnc3[nH]nc(C)c3c2)c1F [Compound 78] ?
Outgoing: < 0.05 µM

Incoming: And COc1ncc(F)cc1S(=O)(=O)Nc1ccc(F)c(COc2cnc3[nH]nc(CC(F)(F)F)c3c2)c1F [Compound 80] ?
Outgoing: < 0.05 µM

* * *

GCN2 (Homo sapiens, UniProt Q9P2K8) IC50 data
Sequence (Q9P2K8 whole entry): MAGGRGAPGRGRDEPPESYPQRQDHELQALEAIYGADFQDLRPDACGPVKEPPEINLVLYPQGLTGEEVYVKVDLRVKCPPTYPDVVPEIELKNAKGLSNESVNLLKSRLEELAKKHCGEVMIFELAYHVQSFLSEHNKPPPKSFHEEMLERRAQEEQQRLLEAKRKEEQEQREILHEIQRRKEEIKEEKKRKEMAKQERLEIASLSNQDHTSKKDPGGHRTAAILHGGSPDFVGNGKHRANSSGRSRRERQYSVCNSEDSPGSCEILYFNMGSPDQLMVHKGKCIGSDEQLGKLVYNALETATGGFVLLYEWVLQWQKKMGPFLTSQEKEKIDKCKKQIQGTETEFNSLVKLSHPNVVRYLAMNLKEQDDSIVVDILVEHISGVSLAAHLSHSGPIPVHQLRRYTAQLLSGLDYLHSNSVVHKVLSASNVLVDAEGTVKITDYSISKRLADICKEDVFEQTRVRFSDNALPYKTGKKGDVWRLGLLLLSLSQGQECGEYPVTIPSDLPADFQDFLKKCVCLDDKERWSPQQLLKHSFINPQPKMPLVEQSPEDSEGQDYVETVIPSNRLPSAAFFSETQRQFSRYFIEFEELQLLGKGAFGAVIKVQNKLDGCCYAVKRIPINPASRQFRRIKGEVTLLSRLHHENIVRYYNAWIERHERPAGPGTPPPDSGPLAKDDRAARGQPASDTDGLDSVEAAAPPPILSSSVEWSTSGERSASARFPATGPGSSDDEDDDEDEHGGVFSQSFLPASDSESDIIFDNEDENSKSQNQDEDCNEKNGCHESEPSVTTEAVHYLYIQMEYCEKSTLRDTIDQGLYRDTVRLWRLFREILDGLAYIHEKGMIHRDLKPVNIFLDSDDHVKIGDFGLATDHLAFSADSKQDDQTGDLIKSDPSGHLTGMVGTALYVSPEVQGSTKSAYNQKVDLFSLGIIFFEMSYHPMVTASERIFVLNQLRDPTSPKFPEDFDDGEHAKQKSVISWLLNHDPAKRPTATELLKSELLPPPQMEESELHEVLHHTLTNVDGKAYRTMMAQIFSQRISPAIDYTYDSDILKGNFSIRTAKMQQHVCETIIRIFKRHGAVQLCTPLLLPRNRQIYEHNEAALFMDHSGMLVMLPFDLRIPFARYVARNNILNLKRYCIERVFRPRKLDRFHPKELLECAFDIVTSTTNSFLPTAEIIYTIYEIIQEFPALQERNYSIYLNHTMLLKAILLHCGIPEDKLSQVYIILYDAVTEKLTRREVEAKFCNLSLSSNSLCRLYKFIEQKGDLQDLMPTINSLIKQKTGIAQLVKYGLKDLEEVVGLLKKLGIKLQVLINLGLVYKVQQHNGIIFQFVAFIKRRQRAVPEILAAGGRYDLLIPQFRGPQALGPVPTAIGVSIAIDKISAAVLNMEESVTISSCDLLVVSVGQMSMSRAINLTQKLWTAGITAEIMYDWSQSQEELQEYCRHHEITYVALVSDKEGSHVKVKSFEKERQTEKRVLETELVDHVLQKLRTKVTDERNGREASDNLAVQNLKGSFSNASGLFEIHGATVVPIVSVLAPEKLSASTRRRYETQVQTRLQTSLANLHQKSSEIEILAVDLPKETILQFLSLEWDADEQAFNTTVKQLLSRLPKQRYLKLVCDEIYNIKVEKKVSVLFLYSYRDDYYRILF

Incoming: # IC50 lookup, item COc1ncc(C#N)cc1S(=O)(=O)Nc1ccc(F)c(NCc2cnc3[nH]nc(C)c3c2)c1F
Outgoing: 50 to 500 nM

Incoming: And COc1ncc(F)cc1S(=O)(=O)Nc1ccc(F)c(COc2cnc3[nH]c(=O)n(C)c3c2)c1F ?
Outgoing: < 50 nM

Incoming: And COc1ncc(F)cc1S(=O)(=O)Nc1ccc(F)c(COc2cnc3[nH]nc(CCF)c3c2)c1F ?
Outgoing: < 50 nM

Incoming: And COc1ncc(C#N)cc1S(=O)(=O)Nc1ccc(F)c(COc2cnc3[nH]ncc3c2)c1F ?
Outgoing: < 50 nM

Incoming: And COc1ncc(F)cc1S(=O)(=O)Nc1ccc(F)c(COc2cnc3[nH]nc(C)c3c2)c1Cl ?
Outgoing: < 50 nM

Incoming: And COc1ncc(F)cc1S(=O)(=O)Nc1ccc(F)c(COc2cnc3[nH]nc(C)c3c2Cc2ccccc2)c1F ?
Outgoing: > 1000 nM

Incoming: And COc1ncc(Cl)cc1S(=O)(=O)Nc1ccc(F)c(COc2cnn3cncc3c2)c1F ?
Outgoing: < 50 nM

Incoming: And COc1ncc(Cl)cc1S(=O)(=O)Nc1ccc(F)c(CCc2cnc3cnn(C(C)C)c3c2)c1F ?
Outgoing: < 50 nM

* * *

UniProt:Q9P2K8 IC50 data

Incoming: # IC50 lookup, item Cc1ncc(F)cc1S(=O)(=O)Nc1ccc(F)c(COc2cnc3[nH]nc(C)c3c2)c1F
Outgoing: < 50 nM

Incoming: And N#Cc1cc(C(F)(F)F)cc(S(=O)(=O)Nc2ccc(F)c(CCc3cnc4[nH]ncc4c3)c2F)c1 ?
Outgoing: 50 to 500 nM

Incoming: And C#Cc1n[nH]c2ncc(OCc3c(F)ccc(NS(=O)(=O)c4cc(F)cnc4OC)c3F)cc12 ?
Outgoing: < 50 nM

Incoming: And COc1ncc(Cl)cc1S(=O)(=O)Nc1ccc(F)c(COc2cnc3[nH]ncc3c2C#N)c1F ?
Outgoing: < 50 nM

* * *

molecular target: GCN2 (Homo sapiens); construct: purchased Carma Biosciences (so in the source); experiment: TR-FRET biochemical assay for inhibition of GCN2 activity; settings: 2 nM GCN2, 100 nM GFP-eIF2α, 150 μM ATP, 1.5 hours at 25° C.
pIC50: −log10 of the molar value.
Measured property: pIC50

Incoming: # pIC50 lookup, item COc1ncc(Cl)cc1S(=O)(=O)Nc1ccnc(COc2cnc3[nH]nc(C)c3c2)c1F
Outgoing: > 7.30

Incoming: And COc1ncc(Cl)cc1S(=O)(=O)Nc1ccc(F)c(C(C)Nc2cnc3[nH]ncc3c2)c1F (centres unmarked) ?
Outgoing: < 6.00

Incoming: And COc1ncc(Cl)cc1S(=O)(=O)Nc1ncc(F)c(COc2cnc3[nH]nc(C)c3c2)c1F ?
Outgoing: > 7.30

Incoming: And Cc1ncc(F)cc1S(=O)(=O)Nc1ccc(Cl)c(COc2cnc3[nH]nc(C)c3c2)c1F ?
Outgoing: > 7.30

Incoming: And COc1ncc(F)cc1S(=O)(=O)Nc1ccc(F)c(COc2cnc3[nH]nc(-c4ccccc4)c3c2)c1F ?
Outgoing: > 7.30

Incoming: And COc1ncc(F)cc1S(=O)(=O)Nc1ccc(F)c(COc2cnn3cnc(C(F)(F)F)c3c2)c1F ?
Outgoing: > 7.30

Incoming: And COc1ncc(Cl)cc1S(=O)(=O)Nc1ccc(F)c(CCc2cnc3n2CCOC3)c1F ?
Outgoing: < 6.00

Incoming: And CCc1n[nH]c2ncc(OCc3c(F)ccc(NS(=O)(=O)c4cc(Cl)cnc4OC)c3F)cc12 ?
Outgoing: > 7.30

* * *

GCN2 (Homo sapiens, UniProt Q9P2K8) IC50 data

Incoming: # IC50 lookup, item COc1ncc(F)cc1S(=O)(=O)Nc1ccc(F)c(COc2cnc3[nH]nc(C)c3c2-c2ccccc2)c1F
Outgoing: 50 to 500 nM

Incoming: And COc1ncc(F)cc1S(=O)(=O)Nc1ccc(F)c(COc2cnc3[nH]nc(C)c3c2)c1C#N ?
Outgoing: 50 to 500 nM

Incoming: And COc1ncc(F)cc1S(=O)(=O)Nc1ccc(F)c(COc2cnc3[nH]nc(C#N)c3c2)c1F ?
Outgoing: < 50 nM

Incoming: And COc1ncc(F)cc1S(=O)(=O)Nc1ccc(F)c(COc2cnc3[nH]nc(C(C)C)c3c2)c1F ?
Outgoing: < 50 nM

Incoming: And Cc1ncc(F)cc1S(=O)(=O)Nc1ccc(F)c(COc2cnc3[nH]nc(C(C)C)c3c2)c1F ?
Outgoing: < 50 nM

Incoming: And Cc1ncc(F)cc1S(=O)(=O)Nc1ccc(F)c(CCc2cnc3[nH]ncc3c2)c1F ?
Outgoing: < 50 nM

Incoming: And COc1ncc(F)cc1S(=O)(=O)Nc1ccc(F)c(COc2cnc3[nH]nc(C)c3c2C2CCCC2)c1F ?
Outgoing: 500 to 1000 nM

Incoming: And COc1ncc(F)cc1S(=O)(=O)Nc1ccc(F)c(COc2cnc3[nH]nc(C)c3c2C2CC2)c1F ?
Outgoing: 50 to 500 nM

Incoming: And CCc1n[nH]c2ncc(OCc3c(F)ccc(NS(=O)(=O)c4cc(F)cnc4OC)c3F)cc12 ?
Outgoing: < 50 nM

Incoming: And COc1ncc(Cl)cc1S(=O)(=O)Nc1ccc(F)c(NCc2cnc3[nH]ncc3c2)c1F ?
Outgoing: 50 to 500 nM

Incoming: And COc1ncc(Cl)cc1S(=O)(=O)Nc1ccc(F)c(COc2cnc3[nH]ncc3c2OC)c1F ?
Outgoing: < 50 nM

Incoming: And COc1ncc(F)cc1S(=O)(=O)Nc1ccc(F)c(CCc2cnc3cn(C(C)C)nc3c2)c1F ?
Outgoing: 50 to 500 nM

Incoming: And COc1ncc(F)cc1S(=O)(=O)Nc1ccc(F)c(COc2cnc3[nH]nc(C4CC4)c3c2)c1F ?
Outgoing: < 50 nM

Incoming: And COc1ncc(Cl)cc1S(=O)(=O)Nc1ncc(F)c(COc2cnc3[nH]nc(C)c3c2)c1Cl ?
Outgoing: < 50 nM

Incoming: And COc1ncc(Cl)cc1S(=O)(=O)Nc1ccc(F)c(CNc2cnc3[nH]ncc3c2)c1F ?
Outgoing: 50 to 500 nM

Incoming: And Cc1ncc(F)cc1S(=O)(=O)Nc1ccc(F)c(COc2cnc3[nH]nc(C)c3c2)c1Cl ?
Outgoing: < 50 nM
